- Type: physicochemical
- CONDITION DESCRIPTION: DI water, 25° C., 0.5 mM; time 5 min
Task for the reader: assign each of the following compounds its reported Condition 2 Conversion (%).
Use % as the unit, but write only the number.

# compound COc1ccc([C@@]23CCC(=NOCC4CC4)C[C@@H]2N(C)CC3)cc1OC ; its Condition 2 Conversion (%) = 0

get_value(item= COc1ccc([C@@]23CCC(OC(=O)C(c4ccccc4)c4ccccc4)=C[C@@H]2N(C)CC3)cc1OC , readout=Condition 2 Conversion (%)) returns 0

Input COc1ccc(C23CCC(=NNC(=O)Nc4ccccc4)C[C@@H]2N(C)CC3)cc1OC (stereo in doubt) . Output Condition 2 Conversion (%): 0.21

Per the records, this compound ( COc1ccc([C@@]23CCC(=NOC(C)(C)C)C[C@@H]2N(C)CC3)cc1OC ) has Condition 2 Conversion (%) equal to 0

Sure, the documented Condition 2 Conversion (%) for COc1ccc([C@@]23CC/C(=N/NC(=O)Nc4ccccc4Cl)C[C@@H]2N(C)CC3)cc1OC is 0

# Condition 2 Conversion (%) (compound: COc1ccc([C@@]23CCC(=NNC(C)=O)C[C@@H]2N(C)CC3)cc1OC ) is 20

Looking up COc1ccc([C@@]23CC/C(=N\NC(=O)Nc4ccccc4Cl)C[C@@H]2N(C)CC3)cc1OC , I see its Condition 2 Conversion (%) listed as 0

Condition 2 Conversion (%) measured on COc1ccc([C@@]23CCC(=NNC(=O)c4ccc(F)cc4)C[C@@H]2N(C)CC3)cc1OC = 21.53

Entry COc1ccc([C@@]23CCC(=NNCc4cccnc4)C[C@@H]2N(C)CC3)cc1OC — recorded Condition 2 Conversion (%) = 0

Condition 2 Conversion (%) reading for COc1ccc([C@@]23CCC(=NNC(=O)Nc4cccnc4)C[C@@H]2N(C)CC3)cc1OC : 0

The recorded Condition 2 Conversion (%) for COc1ccc([C@@]23CC/C(=N\OC(C)(C)OC)C[C@@H]2N(C)CC3)cc1OC is 0

Input COc1ccc([C@@]23CCC(OC(=O)C(C)(C)C)=C[C@@H]2N(C)CC3)cc1OC . Output Condition 2 Conversion (%): 0

// recorded Condition 2 Conversion (%) for COc1ccc([C@@]23CCC(=NNC(=O)Nc4cccc(O)c4)C[C@@H]2N(C)CC3)cc1OC : 0

Looking up COc1ccc([C@@]23CCC(=NNC(=O)Nc4ccc(C(=O)O)cc4)C[C@@H]2N(C)CC3)cc1OC (racemic) , I found its Condition 2 Conversion (%) recorded as 0

###

- CONDITION DESCRIPTION: 240 min, 5 μM
PARAMETER MEASURED: Mouse Plasma Compound 001 (%)

Kindly note the recorded Mouse Plasma Compound 001 (%) for COc1ccc([C@@]23CCC(OC(=O)CC(C)C)=C[C@@H]2N(C)CC3)cc1OC , which is 68.5%

Quick note, Mouse Plasma Compound 001 (%) for COc1ccc([C@@]23CCC(OC(=O)c4ccc(C(C)C)cc4)=C[C@@H]2N(C)CC3)cc1OC landed at 19.82%

Field Mouse Plasma Compound 001 (%) (entry COc1ccc([C@@]23CCC(OC(=O)c4ccc(C#N)cc4)=C[C@@H]2N(C)CC3)cc1OC ) reads 20.12%

The compound listed as COc1ccc([C@@]23CCC(OC(=O)c4cccc(N(C)C)c4)=C[C@@H]2N(C)CC3)cc1OC shows Mouse Plasma Compound 001 (%) equal to 79.0%
